pKi: −log10 of the molar value.
Compiled notes: published pKi values involving Glutamate carboxypeptidase 2 (Rattus norvegicus, UniProt P70627).
Sequence (P70627 whole entry): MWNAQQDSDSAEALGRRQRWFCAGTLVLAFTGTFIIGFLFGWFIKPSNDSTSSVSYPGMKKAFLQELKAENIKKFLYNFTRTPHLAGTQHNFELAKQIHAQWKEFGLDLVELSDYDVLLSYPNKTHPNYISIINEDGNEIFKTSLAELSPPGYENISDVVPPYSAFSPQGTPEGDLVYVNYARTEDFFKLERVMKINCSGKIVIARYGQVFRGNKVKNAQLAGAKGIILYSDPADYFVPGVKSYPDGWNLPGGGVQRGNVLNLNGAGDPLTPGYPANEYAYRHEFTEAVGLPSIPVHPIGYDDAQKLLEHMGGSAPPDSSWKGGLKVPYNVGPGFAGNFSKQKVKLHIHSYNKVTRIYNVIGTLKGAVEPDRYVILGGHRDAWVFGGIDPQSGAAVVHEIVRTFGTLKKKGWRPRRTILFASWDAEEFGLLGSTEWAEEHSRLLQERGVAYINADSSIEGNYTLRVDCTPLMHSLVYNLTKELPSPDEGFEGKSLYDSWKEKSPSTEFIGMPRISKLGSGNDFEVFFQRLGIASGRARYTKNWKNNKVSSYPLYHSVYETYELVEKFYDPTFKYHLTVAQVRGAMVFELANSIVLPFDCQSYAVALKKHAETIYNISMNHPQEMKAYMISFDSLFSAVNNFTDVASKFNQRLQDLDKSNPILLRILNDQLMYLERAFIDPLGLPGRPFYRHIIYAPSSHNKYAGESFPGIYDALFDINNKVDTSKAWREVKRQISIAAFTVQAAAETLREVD
Quantity Name: pKi

The following compounds have reported results that may help.
O=C(O)CCC(CP(=O)(O)Cc1ccccc1C(F)(F)F)C(=O)O (centres unmarked): 7.04
O=C(O)c1ccc(C(=O)O)c(Sc2ccccc2C(=O)O)c1: 6.24
O=C(Cc1cc(C(=O)O)cc(C(=O)O)c1)NO: 4.92
O=C(O)c1ccc(S(=O)(=O)c2cc(C(=O)O)ccc2C(=O)O)cc1: 5.63
O=C(O)CCC(CP(=O)(O)c1ccc(F)cc1)C(=O)O (centres unmarked): 6.27

A: O=C(O)c1cc(C(=O)O)cc(C(=O)NO)c1
B: O=C(O)CCC(CP(=O)(O)C(NC(=O)O)c1ccccc1)C(=O)O (centres unmarked)
Asked: // select label with min value of measured pKi from [ A , B ] Bench note: the answer is the label of the chosen record.
Given back: B
(B: 5.70, A: 6.00)

I: O=C(O)c1ccc(CCS)c(C(=O)O)c1
II: O=C(O)c1cc(CCS)cc(C(=O)O)c1
III: O=C(O)c1cc(C(=O)O)cc(P(=O)(O)O)c1
IV: Cc1cccc(P(=O)(O)CC(CCC(=O)O)C(=O)O)c1 (centres unmarked)
Asked: // ranking: key=pKi, reverse=True Answer format: list of labels, ordered as asked.
Given back: I, IV, II, III
(I: 6.94, IV: 6.74, II: 5.29, III: 4.85)
